Test system: primary rat microglia;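 further: share of dead cells sized under 150 µm2 at 10 µM in fibrin-stimulated microglia HTS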
Conditions: rat
Counter-ions that a name gives are not always drawn.
What Fibrin % cell toxicity was measured for each of the following?
Field: numeric (%). Do not append units.

Which Fibrin % cell toxicity reading was recorded for the compound CCC1=C(C)CN(C(=O)NCCc2ccc(S(=O)(=O)NC(=O)N[C@H]3CC[C@H](C)CC3)cc2)C1=O [Glimepiride] ?
1

Which Fibrin % cell toxicity reading was recorded for the compound CC(=O)OCC(=O)[C@@]1(O)[C@H](C)C[C@H]2[C@@H]3CCC4=CC(=O)C=C[C@]4(C)[C@@]3(F)[C@@H](O)C[C@@]21C [Dexamethasone acetate, reference compound] ?
4

Which Fibrin % cell toxicity reading was recorded for the compound CCCC(C)C1(CC)C(=O)NC(=S)NC1=O (stereo not drawn) [Thiopental] ?
0

Which Fibrin % cell toxicity reading was recorded for the compound CCOP(=S)(OCC)Oc1nc(Cl)c(Cl)cc1Cl [Chlorpyrifos] ?
1

Which Fibrin % cell toxicity reading was recorded for the compound O=c1n(Cl)c(=O)n(Cl)c(=O)n1Cl [Symclosene] ?
0

Which Fibrin % cell toxicity reading was recorded for the compound Cc1ccccc1C(OCCN(C)C)c1ccccc1 (stereo not drawn) [Orphenadrine] ?
0

Which Fibrin % cell toxicity reading was recorded for the compound CC(C)CN(C[C@@H](O)[C@H](Cc1ccccc1)NC(=O)O[C@H]1CCOC1)S(=O)(=O)c1ccc(N)cc1 [Amprenavir] ?
1

Which Fibrin % cell toxicity reading was recorded for the compound CN1C2CCCC1CC(NC(=O)c1nn(C)c3ccccc13)C2 (stereo not drawn) [Granisetron Hydrochloride] ?
0

Which Fibrin % cell toxicity reading was recorded for the compound O=c1oc2c(O)c(O)cc3c(=O)oc4c(O)c(O)cc1c4c23 [Ellagic Acid] ?
1

Data provenance: patent US20210330611A1
